B1: FAM46D (parent)
chain: FQEAMTHLQHKLICTRKPEEIRGG

variants of: B1; experiment: protein stability index of a GFP-peptide fusion (GPS, HEK-293T) (PSI 1-6); higher = more stable; details: c terminus: a fixed tail appended;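 also: lentivirally expressed fusions sorted by FACS into six bins by GFP to DsRed ratio, PSI derived from sequencing read proportions per bin multiplied by bin number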
measure: protein stability index

• P18V = 2.54
• T15S = 2.92
• L8N = 3.76
• E3G = 2.98
• T15N = 2.79
• M5H = 3.79
• G24I = 1.91
• E20A = 2.15
• F1R = 3.82
• Q9C = 1.89
• T15V = 2.94
• G24A = 2.26
• I13S = 2.94
• R16T = 2.56
• K17P = 2.52
• K11A = 2.54
• E3L = 1.9
• C14D = 3.17
• P18D = 2.7
• L8M = 3.24
• P18T = 2.85
• Q2N = 3.38
• Q2D = 4.05
• A4V = 2.63
• G23S = 2.71
• T15G = 3.56
• C14R = 3.28
• E19C = 1.97
• H10G = 2.67
• H10Q = 3.05
• E20T = 2.5
• I21G = 2.69
• T15C = 2.42
• E19D = 2.55
• F1M = 3.67
• A4G = 2.74
• R22K = 3.07
• L12I = 2.78
• M5A = 3.21
• H7I = 1.59
• K11E = 3.88
• R22E = 3.29
• F1A = 4.16
• H10M = 1.44
• G24E = 2.49
• G24Q = 2.91
